The reported measurements were obtained from patent US10987349B2.

# target.or.test.system: BRD3 BD2 (Homo sapiens, UniProt Q15059)
# Construct: BRD2 BD2, BRD3 BD2 and BRD4 BD2 (Cisbio); purchased Cisbio
# Sequence (Q15059 306-415 limits assumed): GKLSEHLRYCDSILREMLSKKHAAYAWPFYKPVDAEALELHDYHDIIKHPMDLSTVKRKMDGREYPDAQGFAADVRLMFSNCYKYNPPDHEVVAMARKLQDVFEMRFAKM
# assay.details: Binding assay, BRD3 BD2 to acetylated histone H4 Peptide-Biotin (EPIgeneous Binding Domain Kit B)
# condition: test compound at 300 nmol/L; read-out: Binding inhibition percentage BRD3 BD2
measured.property: inhibition at 0.3 µM (%)

- compound: "CCn1c(=O)cc(C2CC2)c2cc(-n3c(C)cc(=O)n3-c3ccccc3)ccc21 [Example 282b]"
  inhibition at 0.3 µM (%): 92
- compound: "CCn1c(=O)cc(N2CCOCC2)c2cc(-n3cc(C)nc3-c3ccccc3)ccc21"
  inhibition at 0.3 µM (%): 92
- compound: "CCn1c(=O)cc(C2CC2)c2cc(N(C)C(=O)c3ccccc3)ccc21"
  inhibition at 0.3 µM (%): 91
- compound: "CCn1c(=O)cc(C2CC2)c2cc(-c3nc(C)[nH]c3-c3ccccc3)ccc21"
  inhibition at 0.3 µM (%): 92
- compound: "CCn1c(=O)cc(C2CC2)c2cc(-n3c(-c4ccc(C(F)(F)F)cc4)cn(C)c3=O)ccc21"
  inhibition at 0.3 µM (%): 90
- compound: "CCn1c(=O)cc(C2CCN(CCO)CC2)c2cc(C(=O)N(C)c3ccc4c(c3)CCCCC4)ccc21"
  inhibition at 0.3 µM (%): 92
- compound: "CCC1C(=O)N(c2ccccc2)N(c2ccc3c(c2)c(C2CC2)cc(=O)n3CC)C1=O (centres unmarked)"
  inhibition at 0.3 µM (%): 91
- compound: "CCn1c(=O)cc(C2CC2)c2cc(-n3c(-c4ccc(Cl)cc4)c[nH]c3=O)ccc21"
  inhibition at 0.3 µM (%): 92
- compound: "CCn1c(=O)cc(N2CCOCC2)c2cc(N(C)C(=O)c3ccc(Cl)cc3)ccc21"
  inhibition at 0.3 µM (%): 92
- compound: "CCn1c(=O)cc(C2CC2)c2cc(N3C(=O)C(C)C(=O)N3c3ccccc3)ccc21 (centres unmarked)"
  inhibition at 0.3 µM (%): 92
- compound: "CCCn1cc(-c2ccccc2)n(-c2ccc3c(c2)c(N2CCOCC2)cc(=O)n3CC)c1=O"
  inhibition at 0.3 µM (%): 92
- compound: "CCn1c(=O)cc(C2CC2)c2cc(-c3cccnc3-c3ccccc3)ccc21"
  inhibition at 0.3 µM (%): 91
- compound: "CCn1c(=O)cc(N2CCOCC2)c2cc(-n3c(-c4ccc(Cl)cc4)cn(C)c3=O)ccc21"
  inhibition at 0.3 µM (%): 90
- compound: "CCn1c(=O)cc(C2CC2)c2cc(-n3c(-c4ccc(Cl)cc4)cn(C)c3=O)ccc21"
  inhibition at 0.3 µM (%): 92
- compound: "CCn1c(=O)cc(C2CCN(C)CC2)c2cc(C(=O)N(C)c3ccc(C)c(Cl)c3)ccc21"
  inhibition at 0.3 µM (%): 90
- compound: "CCN1CCC(c2cc(=O)n(CC)c3ccc(C(=O)N(C)c4ccccc4)cc23)CC1"
  inhibition at 0.3 µM (%): 67
- compound: "CCn1c(=O)cc(C2CC2)c2cc(-n3c(=O)[nH]c(=O)n3-c3ccccc3)ccc21"
  inhibition at 0.3 µM (%): 91
- compound: "CCn1c(=O)cc(N2CCOCC2)c2cc(-n3c(-c4ccccc4)cn(CCO)c3=O)ccc21"
  inhibition at 0.3 µM (%): 92
- compound: "CCn1c(=O)cc(N2CCOCC2)c2cc(-n3c(-c4ccc(C(F)(F)F)cc4)cn(C)c3=O)ccc21"
  inhibition at 0.3 µM (%): 91
- compound: "CCn1c(=O)cc(N2CCOCC2)c2cc(-n3c(-c4ccc(C(F)(F)F)cc4)c[nH]c3=O)ccc21"
  inhibition at 0.3 µM (%): 91
- compound: "CCn1c(=O)cc(C2CCN(CCO)CC2)c2cc(C(=O)N(C)c3ccc4c(c3)CCCC4)ccc21"
  inhibition at 0.3 µM (%): 92
- compound: "CCn1c(=O)cc(N2CCOCC2)c2cc(-n3c(-c4ccc(Cl)cc4)c[nH]c3=O)ccc21"
  inhibition at 0.3 µM (%): 92
- compound: "CCCCn1cc(-c2ccccc2)n(-c2ccc3c(c2)c(N2CCOCC2)cc(=O)n3CC)c1=O"
  inhibition at 0.3 µM (%): 91
- compound: "CCn1c(=O)cc(N2CCOCC2)c2cc(-n3c(-c4ccccc4)c[nH]c3=O)ccc21"
  inhibition at 0.3 µM (%): 91
- compound: "CCn1c(=O)cc(C2CCN(C)CC2)c2cc(C(=O)N(C)c3ccc(C)c(C)c3)ccc21"
  inhibition at 0.3 µM (%): 90
- compound: "CCn1c(=O)cc(N2CCOCC2)c2cc(-n3ccnc3-c3ccccc3)ccc21"
  inhibition at 0.3 µM (%): 90
- compound: "CCn1c(=O)cc(N2CCOCC2)c2cc(-c3cccnc3-c3ccccc3)ccc21"
  inhibition at 0.3 µM (%): 91
- compound: "CCn1c(=O)cc(C2CCN(C)CC2)c2cc(C(=O)N(C)c3ccc4c(c3)CCC4)ccc21"
  inhibition at 0.3 µM (%): 91
- compound: "CCn1c(=O)cc(N2CCOCC2)c2cc(N3C(=O)CC[C@H]3c3ccccc3)ccc21"
  inhibition at 0.3 µM (%): 89
- compound: "CCn1c(=O)cc(C2CC2)c2cc(-c3nc(C)nn3-c3ccccc3)ccc21"
  inhibition at 0.3 µM (%): 90
- compound: "Cc1ccc(N(C)C(=O)c2ccc3c(c2)c(C2CCN(C)CC2)cc(=O)n3C)cc1"
  inhibition at 0.3 µM (%): 89
- compound: "CCn1c(=O)cc(N2CCOCC2)c2cc(-n3c(-c4ccccc4)cn(CCN4CCOCC4)c3=O)ccc21"
  inhibition at 0.3 µM (%): 91
